Test system: Avena fatua (AVEFA)
Assay: Test Example 1 post-emergence herbicidal activity
Type: in vivo
Conditions: 360 h, rate 125 g/ha, evaluated 15 days later, read-out: Post-emergence activity AVEFA (100=total damage to plant; 0=no damage to plant)
The reader will find reported pest or weed control at 125 g/ha values listed item by item below.

* C#CCOC(=O)OC1=C(c2c(C)cc(C)cc2C)C(=O)[C@@H]2[C@H]1[C@H]1CC[C@@H]2O1 (racemic) | 90%

Memo: `CCc1cc(C)cc(CC)c1C1=C(O)[C@@H]2[C@@H]3O[C@@H](C[C@H]3c3ccc(F)cc3F)[C@@H]2C1=O` , reported pest or weed control at 125 g/ha: 80%

Sample `CCc1cc(C)cc(CC)c1C1=C(O)[C@H]2[C@@H](C1=O)[C@@H]1CC[C@@]2(C)O1` ; pest or weed control at 125 g/ha observed: 100%

So for CCc1cc(C)cc(CC)c1C1=C(O)C2[C@@H](C1=O)[C@@H]1C[C@@H](c3ccc(OC)cc3)[C@H]2O1 (stereo partly drawn) , the logged pest or weed control at 125 g/ha turned out to be 80%

Measured pest or weed control at 125 g/ha of CCc1cc(C)cc(CC)c1C1=C(O)[C@@H]2[C@@H]3O[C@@H](C[C@H]3c3ccc(F)c(F)c3)[C@@H]2C1=O (racemic) : 90%

Input Cc1cc(C)c(C2=C(O)C3C(C2=O)[C@@H]2CC(CO)[C@@]3(C)O2)c(C)c1 (stereo partly drawn) . Output pest or weed control at 125 g/ha: 0%

###

# maps each entry to its pest or weed control at 125 g/ha
System: Avena fatua (AVEFA)
Test: Test Example 1 post-emergence herbicidal activity
Format: in vivo
Conditions: 360 h, rate 125 g/ha, evaluated 15 days later, read-out: Post-emergence activity AVEFA (100=total damage to plant; 0=no damage to plant)
Protocol: Monocotyledonous and dicotyledonous test plants were sown in standard soil in pots. […] The test plants were then grown in a greenhouse under optimum conditions until, 15 days later for post-emergence and 20 days for pre-emergence, the test was evaluated (100=total damage to plant; 0=no damage to plant). […]
Enter your answer as a number in %; do not include the unit.

Some solved cases for reference:
• CCOCOC[C@]12CC[C@H](O1)[C@@H]1C(=O)C(c3c(CC)cc(C)cc3CC)=C(O)[C@@H]12 = 100
• CCc1cc(C)cc(CC)c1C1=C(O)[C@H]2[C@@H](C1=O)[C@@H]1C=C[C@@]2(CO)O1 (racemic) = 90
• CCc1cc(C)cc(CC)c1C1=C(O)[C@@H]2[C@@H]3O[C@@H](C[C@H]3c3ccc(SC)cc3)[C@@H]2C1=O = 90
• CC#CCOC(=O)OC1=C(c2c(CC)cc(C)cc2CC)C(=O)[C@@H]2[C@H]1[C@H]1CC[C@@H]2O1 (racemic) = 90
• CCC(=O)OC1=C(c2c(CC)cc(C)cc2CC)C(=O)[C@@H]2[C@H]1[C@H]1CC[C@@H]2O1 (racemic) = 100

Briefly, pest or weed control at 125 g/ha measured for COc1ccc([C@@H]2C[C@@H]3O[C@H]2[C@H]2C(O)=C(c4c(C)cc(C)cc4C)C(=O)[C@H]23)cc1 (racemic) : 70

###

Test system: Alopecurus myosuroides (ALOMY)
Assay: Test Example 1 post-emergence herbicidal activity
Assay type: in vivo
Details: 360 h, rate 125 g/ha, evaluated 15 days later, read-out: Post-emergence activity ALOMY (100=total damage to plant; 0=no damage to plant)
Decide using pest or weed control at 125 g/ha: a value greater than or equal to 50% is Met, a smaller one is Not met.

* CC1=C2CCC(C)C[C@@]23O[C@@H]1C1C(=O)C(c2c(C)cc(C)cc2C)=C(O)C13 (stereo partly shown) | Not met

## Input Item `CC[C@]12CC[C@H](O1)[C@@H]1C(=O)C(c3c(C)cc(C)cc3C)=C(O)[C@@H]12` with pest or weed control at 125 g/ha of 50% or above?
## Output Met

## Input Could you please find out whether `Cc1cc(C)c(C2=C(O)[C@@H]3[C@@H]4O[C@@H](C[C@H]4C)[C@@H]3C2=O)c(C)c1` has pest or weed control at 125 g/ha that meets 50% or exceeds it?
## Output Met

# credit: patent US8754242B2
